Hey, just so you know, these numbers are from ChEMBL document CHEMBL3232875.

experiment: Antiviral activity against Enterovirus 71 BrCr infected in African green monkey Vero cells assessed as inhibition of virus-induced cytopathic effect after 4 days by MTT assay; assay type: functional, cell-based, Human enterovirus 71 (strain BRCR); details: Enterovirus A, Vero, 96 h; read-out: IC50
The compounds listed here are annotated with their IC50.
Give just the number in µM; leave the unit off.

Recorded results for 2 compounds are shown here.
mol-smiles	observed-property	measured
NC(=O)c1ncn([C@@H]2O[C@H](CO)[C@@H](O)[C@H]2O)n1	IC50	253
CC(C)=CCC/C(C)=C/C[C@@H]1C[C@@]2(CC=C(C)C)C(=O)C(OC(=O)c3ccccc3)=C(O)[C@H](C2=O)C1(C)C	IC50	16.1

Consider now this further compound.
Give its IC50 value. Item: CC(=O)C[C@H]1[C@@H]2C[C@]3(CC=C(C)C)C(=O)[C@@]1(C(=O)c1ccccc1)C(=O)[C@@](CC=C(C)C)(C3=O)C2(C)C 31.1

---

test: Cytotoxicity against African green monkey Vero cells after 4 days by MTT assay; format: cell-based; details: chlorocebus sabaeus
observed-property: CC50 at 96 h (µM)
Give just the number in µM; leave the unit off.

mol-smiles	observed-property	measured
CC(C)=CCC/C(C)=C/C[C@@H]1C[C@@]2(CC=C(C)C)C(=O)C(OC(=O)c3ccccc3)=C(O)[C@H](C2=O)C1(C)C	CC50 at 96 h	37.8

Consider now this further compound.
Give its CC50 at 96 h value. Item: CC(=O)C[C@H]1[C@@H]2C[C@]3(CC=C(C)C)C(=O)[C@@]1(C(=O)c1ccccc1)C(=O)[C@@](CC=C(C)C)(C3=O)C2(C)C 47

---

experiment: Antiviral activity against Enterovirus 71 BrCr infected in African green monkey Vero cells assessed as inhibition of virus-induced cytopathic effect after 4 days by MTT assay; type: functional, cell-based, Human enterovirus 71 (strain BRCR); conditions: vero
observed-property: IC50

compound	IC50
CC(C)=CCC/C(C)=C/C[C@H]1C[C@@]23C[C@@H](C(C)(C)O)OC2=C(C(=O)c2ccccc2)C(=O)[C@H](C3=O)C1(C)C	Not Active
CC(C)=CCC/C(C)=C/C[C@H]1C[C@@]23C[C@H](O)C(C)(C)OC2=C(C(=O)c2ccccc2)C(=O)[C@H](C3=O)C1(C)C	Not Active
COc1c(CC=C(C)C)c(O)c2c(=O)c3ccc(O)c(O)c3oc2c1CC=C(C)C [DULXANTHONE B]	Not Active
CC(C)=CCC/C(C)=C/C[C@@H]1C[C@]2(CC=C(C)C)C(=O)[C@@](CC=C(C)C)(C(=O)C(C(=O)c3ccc(O)c(O)c3)=C2O)[C@@]1(C)CCC=C(C)C [OBLONGIFOLIN C]	Not Active
C=C(C)[C@@H](O)CC/C(C)=C/C[C@@H]1C[C@@]2(CC=C(C)C)C(=O)[C@H](C(=O)C(C(=O)c3ccccc3)=C2O)C1(C)C	Not Active

Give its IC50 value. Item: CC(=O)C[C@@H]1[C@@H]2C[C@]3(CC=C(C)C)C(=O)[C@@]1(C(=O)c1ccc(O)c(O)c1)C(=O)[C@@](CC=C(C)C)(C3=O)C2(C)C Not Active
